system-tested: androgen receptor (AR-LBD) (Rattus norvegicus, UniProt P15207)
Construct: 5 μL of 2×AR-LBD/Fluoromone AL Red Complex contained in the kit; purchased Invitrogen
Sequence (P15207 651-882 limits assumed): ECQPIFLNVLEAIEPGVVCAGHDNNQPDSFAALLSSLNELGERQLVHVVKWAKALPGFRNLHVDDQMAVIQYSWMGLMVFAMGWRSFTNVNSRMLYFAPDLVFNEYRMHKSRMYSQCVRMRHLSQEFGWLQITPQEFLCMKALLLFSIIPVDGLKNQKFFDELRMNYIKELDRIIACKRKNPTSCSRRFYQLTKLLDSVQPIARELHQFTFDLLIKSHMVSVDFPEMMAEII
run-description: Evaluation of androgen receptor affinity (PolarScreen Androgen Receptor Competitor Assay Kit, Red; fluorescence polarization)
run-conditions: 22° C. for 5 hours, relative to binding rate of 1 μM DHT, read-out: AR affinity (pEC50) (converted)
# key: entry, value: EC50
attribute-measured: EC50 (nM)

{"columns": ["compound", "system-tested", "attribute-measured", "value-unit", "measurement-qualifier", "recorded-measurement"],
 "data": [
  ["Cc1sc(N(CC[C@@H]2CCCC[C@@H]2O)c2ccc(C#N)cc2)nc1C(=O)NS(C)(=O)=O (racemic)", "androgen receptor (AR-LBD) (Rattus norvegicus, UniProt P15207)", "EC50", "nM", "=", 251],
  ["CSc1ccc(CN(c2ccc(C#N)cc2)c2nc(C(=O)NS(C)(=O)=O)c(C)s2)cc1", "androgen receptor (AR-LBD) (Rattus norvegicus, UniProt P15207)", "EC50", "nM", "=", 25.1],
  ["COc1cccc(CN(CCc2ccc(OC(F)(F)F)cc2)c2nc(C(=O)NS(C)(=O)=O)c(C)s2)n1", "androgen receptor (AR-LBD) (Rattus norvegicus, UniProt P15207)", "EC50", "nM", "=", 39.8],
  ["Cc1sc(N(CCc2ccc(OC(F)(F)F)cc2)Cc2ccc(C#N)cc2)nc1C(=O)NS(C)(=O)=O", "androgen receptor (AR-LBD) (Rattus norvegicus, UniProt P15207)", "EC50", "nM", "=", 25.1],
  ["Cc1sc(N(Cc2ccccc2)c2ccccn2)nc1C(=O)NS(C)(=O)=O", "androgen receptor (AR-LBD) (Rattus norvegicus, UniProt P15207)", "EC50", "nM", ">", 2000],
  ["Cc1sc(N(CCc2ccc(C#N)cc2)Cc2ccccc2)nc1C(=O)NS(C)(=O)=O", "androgen receptor (AR-LBD) (Rattus norvegicus, UniProt P15207)", "EC50", "nM", "=", 50.1],
  ["Cc1sc(N(CC(O)c2ccccc2)c2ccc(C#N)cc2)nc1C(=O)NS(C)(=O)=O (stereo not shown)", "androgen receptor (AR-LBD) (Rattus norvegicus, UniProt P15207)", "EC50", "nM", ">", 2000],
  ["Cc1sc(N(Cc2ccccc2)c2cccnc2)nc1C(=O)NS(C)(=O)=O", "androgen receptor (AR-LBD) (Rattus norvegicus, UniProt P15207)", "EC50", "nM", ">", 2000],
  ["Cc1sc(N(CCc2ccsc2)c2ccc(C#N)cc2)nc1C(=O)NS(C)(=O)=O", "androgen receptor (AR-LBD) (Rattus norvegicus, UniProt P15207)", "EC50", "nM", "=", 316],
  ["Cc1sc(N(Cc2cccc(OC(F)F)c2)c2ccc(C#N)cc2)nc1C(=O)NS(C)(=O)=O", "androgen receptor (AR-LBD) (Rattus norvegicus, UniProt P15207)", "EC50", "nM", "=", 25.1],
  ["Cc1sc(N(Cc2ccccc2)Cc2ccccn2)nc1C(=O)NS(C)(=O)=O", "androgen receptor (AR-LBD) (Rattus norvegicus, UniProt P15207)", "EC50", "nM", ">", 2000],
  ["Cc1sc(N(Cc2cc(OC(F)F)ccc2F)c2ccc(C#N)cc2)nc1C(=O)NS(C)(=O)=O", "androgen receptor (AR-LBD) (Rattus norvegicus, UniProt P15207)", "EC50", "nM", "=", 25.1],
  ["Cc1sc(N(Cc2ccccc2)c2cccc(-n3cncn3)c2)nc1C(=O)NS(C)(=O)=O", "androgen receptor (AR-LBD) (Rattus norvegicus, UniProt P15207)", "EC50", "nM", ">", 2000],
  ["Cc1sc(N(Cc2cc3ccccc3cn2)c2ccc(C#N)cc2)nc1C(=O)NS(C)(=O)=O", "androgen receptor (AR-LBD) (Rattus norvegicus, UniProt P15207)", "EC50", "nM", "=", 398],
  ["Cc1sc(N(CCc2coc3ccccc23)Cc2ccccc2)nc1C(=O)NS(C)(=O)=O", "androgen receptor (AR-LBD) (Rattus norvegicus, UniProt P15207)", "EC50", "nM", ">", 2000],
  ["Cc1sc(N(CCc2ccc(C(F)(F)F)cc2)Cc2ccccc2)nc1C(=O)NS(C)(=O)=O", "androgen receptor (AR-LBD) (Rattus norvegicus, UniProt P15207)", "EC50", "nM", "=", 25.1]
]}

---

system-tested: androgen receptor (AR-LBD) (Rattus norvegicus)
Construct: 5 μL of 2×AR-LBD/Fluoromone AL Red Complex contained in the kit; purchased Invitrogen
run-description: Evaluation of androgen receptor affinity (PolarScreen Androgen Receptor Competitor Assay Kit, Red; fluorescence polarization)
run-conditions: 22° C. for 5 hours, relative to binding rate of 1 μM DHT, read-out: AR affinity (pEC50) (converted)
# key: entry, value: EC50

{"columns": ["molecule", "measurement-qualifier", "EC50 [nM]"],
 "data": [
  ["Cc1sc(N(CC2COc3ccccc3C2)c2ccc(C#N)cc2)nc1C(=O)NS(C)(=O)=O (centres unmarked) [Compound 510]", "=", 126],
  ["Cc1sc(N(Cc2ccc(OCCO)cc2)c2ccc(C#N)cc2)nc1C(=O)NS(C)(=O)=O [Compound 569]", "=", 631],
  ["Cc1sc(N(Cc2ccc(OC(F)(F)F)cc2)c2ccc(C(F)(F)F)nc2)nc1C(=O)NS(C)(=O)=O [Compound 471]", "=", 100],
  ["Cc1sc(N(CCC2CCCCC2)Cc2ccc(OC(F)(F)F)cc2)nc1C(=O)NS(=O)(=O)C1CC1 [Compound 734]", "=", 1000],
  ["Cc1ncsc1CCN(c1ccc(C#N)cc1)c1nc(C(=O)NS(C)(=O)=O)c(C)s1 [Compound 136]", ">", 2000],
  ["CS(=O)(=O)NC(=O)c1nc(N(Cc2ccccc2)c2ccc(C#N)cc2)sc1C1CC1 [Compound 660]", "=", 79.4],
  ["Cc1sc(N(Cc2cc3ccccc3o2)c2ccc(C#N)cc2)nc1C(=O)NS(C)(=O)=O [Compound 479]", "=", 63.1],
  ["Cc1ccccc1CN(c1ccc(C#N)cc1)c1nc(C(=O)NS(C)(=O)=O)c(Br)s1 [Example 264]", "=", 158]
]}

---

system-tested: androgen receptor (AR-LBD) (Rattus norvegicus)
Construct: 5 μL of 2×AR-LBD/Fluoromone AL Red Complex contained in the kit; purchased Invitrogen
run-description: Evaluation of androgen receptor affinity (PolarScreen Androgen Receptor Competitor Assay Kit, Red; fluorescence polarization)
run-conditions: 22° C. for 5 hours, relative to binding rate of 1 μM DHT, read-out: AR affinity (pEC50) (converted)
# key: entry, value: EC50

{"columns": ["molecule", "system-tested", "value-unit", "measurement-qualifier", "EC50"],
 "data": [
  ["Cc1sc(N(CCc2ccc(F)c(F)c2)Cc2ccccc2)nc1C(=O)NS(C)(=O)=O", "androgen receptor (AR-LBD) (Rattus norvegicus)", "nM", "=", 25.1],
  ["Cc1sc(N(CCc2cccc(Cl)c2)c2ccc(C#N)cc2)nc1C(=O)NS(C)(=O)=O", "androgen receptor (AR-LBD) (Rattus norvegicus)", "nM", "=", 79.4],
  ["Cc1sc(N(CC2CCC(=O)CC2)c2ccc(C#N)cc2)nc1C(=O)NS(C)(=O)=O", "androgen receptor (AR-LBD) (Rattus norvegicus)", "nM", ">", 2000],
  ["Cc1cc(CN(c2ccc(C#N)cc2)c2nc(C(=O)NS(C)(=O)=O)c(C)s2)no1", "androgen receptor (AR-LBD) (Rattus norvegicus)", "nM", "=", 631],
  ["COc1cccc(CN(CCc2ccc(Cl)cc2)c2nc(C(=O)NS(C)(=O)=O)c(C)s2)n1", "androgen receptor (AR-LBD) (Rattus norvegicus)", "nM", "=", 39.8],
  ["Cc1sc(N(Cc2ccc([S+]([O-])C(F)(F)F)cc2)c2ccc(C#N)cc2)nc1C(=O)NS(C)(=O)=O (stereo not shown)", "androgen receptor (AR-LBD) (Rattus norvegicus)", "nM", "=", 63.1],
  ["Cc1sc(N(Cc2ccccc2)CC2CCCCC2)nc1C(=O)NS(C)(=O)=O", "androgen receptor (AR-LBD) (Rattus norvegicus)", "nM", ">", 2000],
  ["CSc1cccc(CN(c2ccc(C#N)cc2)c2nc(C(=O)NS(C)(=O)=O)c(C)s2)c1", "androgen receptor (AR-LBD) (Rattus norvegicus)", "nM", "=", 20],
  ["CS(=O)(=O)NC(=O)c1nc(N(Cc2ccc(C(F)(F)F)cn2)c2ccc(C#N)cc2)sc1Br", "androgen receptor (AR-LBD) (Rattus norvegicus)", "nM", "=", 79.4],
  ["Cc1sc(N(CCC(C)C)c2ccc(C#N)cc2)nc1C(=O)NS(C)(=O)=O", "androgen receptor (AR-LBD) (Rattus norvegicus)", "nM", "=", 79.4],
  ["Cc1sc(N(Cc2cccc(OCc3ccccc3)c2)c2ccc(C#N)cc2)nc1C(=O)NS(C)(=O)=O", "androgen receptor (AR-LBD) (Rattus norvegicus)", "nM", "=", 31.6],
  ["Cc1sc(N(Cc2ccccc2)Cc2csc3cc(C(F)(F)F)ccc23)nc1C(=O)NS(C)(=O)=O", "androgen receptor (AR-LBD) (Rattus norvegicus)", "nM", ">", 2000],
  ["Cc1sc(N(Cc2cnc(C(F)(F)F)c(Cl)c2)c2ccc(C#N)cc2)nc1C(=O)NS(C)(=O)=O", "androgen receptor (AR-LBD) (Rattus norvegicus)", "nM", "=", 50.1],
  ["COCCCS(=O)(=O)NC(=O)c1nc(N(Cc2ccc(OC(F)F)c(Cl)c2)c2ccc(C#N)cc2)sc1C", "androgen receptor (AR-LBD) (Rattus norvegicus)", "nM", "=", 31.6],
  ["Cc1oc(N(Cc2ccc(Br)cc2)c2ccc(C#N)cc2)nc1C(=O)NS(C)(=O)=O", "androgen receptor (AR-LBD) (Rattus norvegicus)", "nM", "=", 50.1],
  ["Cc1sc(N(Cc2ccc(OC(F)F)cc2)c2ccc(C#N)cc2)nc1C(=O)NS(C)(=O)=O", "androgen receptor (AR-LBD) (Rattus norvegicus)", "nM", "=", 31.6],
  ["Cc1sc(N(CCc2ccccc2C#N)Cc2ccccc2)nc1C(=O)NS(C)(=O)=O", "androgen receptor (AR-LBD) (Rattus norvegicus)", "nM", "=", 1260],
  ["Cc1sc(N(Cc2ccc(C(F)(F)F)cn2)c2ccc(C#N)cc2)nc1C(=O)NS(C)(=O)=O", "androgen receptor (AR-LBD) (Rattus norvegicus)", "nM", "=", 126],
  ["CS(=O)(=O)NC(=O)c1nc(N(Cc2cccc(OC(F)F)c2)c2ccc(C#N)cc2)sc1Br", "androgen receptor (AR-LBD) (Rattus norvegicus)", "nM", "=", 50.1],
  ["Cc1sc(N(CC(=O)NC2CC2)c2ccc(C#N)cc2)nc1C(=O)NS(C)(=O)=O", "androgen receptor (AR-LBD) (Rattus norvegicus)", "nM", ">", 2000],
  ["Cc1sc(N(C)c2ccc(C#N)cc2)nc1C(=O)NS(C)(=O)=O", "androgen receptor (AR-LBD) (Rattus norvegicus)", "nM", ">", 2000],
  ["Cc1oc(N(Cc2cccc(F)c2)c2ccc(C#N)cc2)nc1C(=O)NS(C)(=O)=O", "androgen receptor (AR-LBD) (Rattus norvegicus)", "nM", "=", 126],
  ["Cc1sc(N(CC(=O)NC2CCCCC2)c2ccc(C#N)cc2)nc1C(=O)NS(C)(=O)=O", "androgen receptor (AR-LBD) (Rattus norvegicus)", "nM", ">", 2000],
  ["Cc1sc(N(CCc2ccc(Cl)cc2)CC2CCCCC2)nc1C(=O)NS(C)(=O)=O", "androgen receptor (AR-LBD) (Rattus norvegicus)", "nM", "=", 251],
  ["Cc1sc(N(CCC2CCCCC2)Cc2ccc(OC(F)(F)F)cc2)nc1C(=O)NS(=O)(=O)Cc1cccc(F)c1", "androgen receptor (AR-LBD) (Rattus norvegicus)", "nM", "=", 1000],
  ["CS(=O)(=O)NC(=O)c1nc(N(Cc2ccc3occc3c2)c2ccc(C#N)cc2)sc1Cl", "androgen receptor (AR-LBD) (Rattus norvegicus)", "nM", "=", 31.6],
  ["Cc1sc(N(CCc2cccc3ccccc23)c2ccc(C#N)cc2)nc1C(=O)NS(C)(=O)=O", "androgen receptor (AR-LBD) (Rattus norvegicus)", "nM", "=", 251],
  ["Cc1sc(N(CCc2ccc(C#N)cc2)CC2CCCCC2)nc1C(=O)NS(=O)(=O)C1CC1", "androgen receptor (AR-LBD) (Rattus norvegicus)", "nM", ">", 2000],
  ["Cc1sc(N(CCc2ccc(C#N)cc2)Cc2ccc(Cl)cc2)nc1C(=O)NS(=O)(=O)Cc1ccncc1", "androgen receptor (AR-LBD) (Rattus norvegicus)", "nM", "=", 25.1],
  ["Cc1ccc(CN(c2ccc(C#N)cc2)c2nc(C(=O)NS(C)(=O)=O)c(Cl)s2)cc1", "androgen receptor (AR-LBD) (Rattus norvegicus)", "nM", "=", 25.1],
  ["Cc1sc(N(CC2CCC(F)(F)CC2)c2ccc(C#N)cc2)nc1C(=O)NS(C)(=O)=O", "androgen receptor (AR-LBD) (Rattus norvegicus)", "nM", "=", 251]
]}
